System: COLO 205
Assay: NCI tumour cell line growth inhibition, 48 h
The source made the active and inactive calls. No stated cut-off is given here; in the data, active = GI50 up to about 1.1 µM and inactive = higher.
Use one of these outcomes when replying: Y (active), N (inactive)

For orientation, consider the following solved cases.
MOLECULE: [N-]=[N+]=NC[C@H]1OCO[C@H](CN=[N+]=[N-])[C@H]2OCCOCCOc3ccccc3OCCOCCO[C@@H]21
TEST TARGET: COLO 205
CAT: N

MOLECULE: COc1ccc(S(=O)(=O)N/N=C/CN2C(=O)c3ccccc3C2=O)cc1OC
TEST TARGET: COLO 205
CAT: N

MOLECULE: CC(C)C1OC(=O)C=C1Sc1ccccc1 (centres undefined)
TEST TARGET: COLO 205
CAT: N

MOLECULE: CC(=O)OCC1OC(N2C(C)=C(C(C)=O)C(c3ccc(Cl)cc3)C(C#N)=C2S)C(OC(C)=O)C(OC(C)=O)C1OC(C)=O (centres undefined)
TEST TARGET: COLO 205
CAT: N

MOLECULE: COc1cc(NP(=O)(Oc2ccccc2)Oc2ccccc2)ccc1Nc1c2ccccc2nc2c1[nH]c1ccccc12
TEST TARGET: COLO 205
CAT: N

MOLECULE: CC(=O)NC1C(OCc2ccccc2)OC(CO)C(O)C1OC(C)C(=O)N[C@@H](C)C(=O)N[C@H](CCC(=O)OCCNc1c2ccccc2nc2cccc([N+](=O)[O-])c12)C(N)=O (some centres undefined)
TEST TARGET: COLO 205
CAT: Y

MOLECULE: O=C1CC2CC=C[C@H]3c4cc5c(cc4C(=O)N1C23)OCO5 (some centres undefined)
TEST TARGET: COLO 205
CAT: N

MOLECULE: O=C1N=C(c2ccccc2)OC1C(=O)c1ccccc1 (centres undefined)
TEST TARGET: COLO 205
CAT: N

Identify the outcome logged in this assay for the molecule shown: "O=C(Cc1ccccc1)c1ccc2[nH]c(=O)oc2c1"
N

Please state the recorded outcome for this molecule: CN(C)CCN(C)CC1COC(C)(C)O1 (centres undefined)
N

Give the logged outcome of this assay for the following molecule: "CC(C)(C)c1ccc(OCCOCCOc2ccc(C(C)(C)C)cc2S(N)(=O)=O)c(S(N)(=O)=O)c1"
N

Recorded call for "Cc1ccc2c(c1)CN1c3ccc(C)cc3CN2C1c1ccccc1O" ?
N

Hello, I am checking results. What call was entered for "Cn1c2ccccc2n2c(=O)c3cc([N+](=O)[O-])ccc3c(C#N)c12" ?
N

How was CC1(c2ccc(Cl)cc2)N=C(NCCO)c2ccccc21 (centres undefined) classified in this test?
N
